OBSERVATION TYPE: melting point

Below, each entry is followed by its recorded melting point result.
CN1CCN(Cc2c(C(=O)O)nc3c(=O)[nH]c4cc(C(F)(F)F)ccc4n23)CC1: > 240 °C
CC(CO)Oc1ccc(CNc2ccc(Cl)cc2)cc1 (stereo unspecified): 81 to 83 °C
COc1ccc(C(=O)Nc2ccccc2)cc1NC(=S)Nc1ccccc1C: 172 to 174 °C

Input line: Given CCNC(=O)C1CC(n2cnc3c(NC(CC)Cc4ccc(Cl)s4)ccnc32)C(O)C1O (stereo unspecified) , respond with its melting point.
Output line: 77 to 85 °C

Input line: Given "CC(c1ccc(O)cc1)c1ccc(O)cc1" , respond with its melting point.
Output line: 123 to 125 °C
